Where do the numbers come from? From PubChem BioAssay AID589.

experiment: qHTS Assay for Spectroscopic Profiling in 4-MU Spectral Region; conditions: compound autofluorescence, 340/450 nm, 4-MU equivalents
Out of some 59,000 compounds screened, about 6,200 (11%) were called active. Not shown: some 9% with an inconclusive outcome. No stated cut-off is given here; in the data, active means max dye-equivalent concentration above about 10 nM; inconclusive means mostly about 1.1 nM to 9.6 nM; inactive means weaker than that. What follows is part of a selection rich in actives, with near analogues and random picks from the rest.
Lab note: assign the record to one of active, inactive

input: Assay outcome for Cc1nc2ccccc2c2oc(C(=O)NCC3CCCO3)cc12 (configuration not stated) : what was it?
output: active

input: Assay outcome for "Cc1ccc2cc3cc(C(=O)N4CCCCCC4)oc3nc2c1" : what was it?
output: active

input: Assay outcome for "C=CCNc1nc(C)nc(OC)n1" : what was it?
output: inactive

input: Assay outcome for "CCOC(=O)N1CCN(CC(=O)c2ccc3c(c2)CCN3)CC1" : what was it?
output: active

input: Assay outcome for "CCOC(=O)N1CCN(CC(=O)c2c(C)[nH]c3ccccc23)CC1" : what was it?
output: inactive

input: Assay outcome for "CCOC(=O)C1=C(C)NC(C)=C(C(=O)OCC)C1c1ccccn1" : what was it?
output: active

input: Assay outcome for "CCCN(CCC)CCNC(=O)c1cc2c(C)nc3ccccc3c2o1" : what was it?
output: active

input: Assay outcome for "CCCOc1ccccc1-c1nc(SCCC(=O)O)n[nH]1" : what was it?
output: inactive

input: Assay outcome for COCCOC(=O)C1=C(C)Nc2nc(C)nn2C1c1ccccc1 (configuration not stated) : what was it?
output: inactive

input: Assay outcome for "COc1ccc(CNc2ncncc2-c2ccccc2C)c(OC)c1" : what was it?
output: inactive

input: Assay outcome for "CCOC(=O)N1CCN(CC(=O)n2c(C)c(C)c3ccccc32)CC1" : what was it?
output: inactive

input: Assay outcome for "CCCC(=O)Nc1ccc(C(=O)NCCCn2ccnc2)cc1" : what was it?
output: inactive

* * *

assay: qHTS Assay for Spectroscopic Profiling in 4-MU Spectral Region; conditions: compound autofluorescence, 340/450 nm, 4-MU equivalents; stronger effect = higher value
In all, about 59,000 compounds went through this assay and about 6,200 (11%) were called active. Inconclusive results (about 9%) are left out. This excerpt belongs to a sample that is enriched for actives.
measurement_kind: max dye-equivalent concentration

# count of solved cases: 5
COc1ccccc1C(=O)Oc1ccc(N2C(=O)CCC2=O)cc1 :: inactive
O=C(C1CCC(C(=O)N2CCCC2)CC1)N1CCCC1 (stereo unspecified) :: inactive
CSc1nsc(SC)c1NC(=O)OC1CCCCC1 :: inactive
CS(=O)(=O)c1ccc2nc(NC(=O)CN3CCCCCC3)sc2c1 :: inactive
CC(C)OCCCNc1nc2c(c(=O)n(Cc3ccccc3F)c(=O)n2C)n1C :: inactive

Shifting focus to the molecule that follows.
input: Look up max dye-equivalent concentration: CN1CCCC(OC(=O)COc2ccc(Br)cc2)C1 (stereo unspecified)
output: inactive

* * *

experiment: qHTS Assay for Spectroscopic Profiling in 4-MU Spectral Region; details: compound autofluorescence, 340/450 nm, 4-MU equivalents
About 6,200 (11%) of roughly 59,000 compounds were called active. About 9% were inconclusive and are not listed. No stated cut-off is given here; in the data, active means max dye-equivalent concentration above about 10 nM; inconclusive means mostly about 1.1 nM to 9.6 nM; inactive means weaker than that. The full list was thinned out, with actives kept by preference.
Lab note: assign the record to one of active, inactive

input: Assay outcome for CCC1=C(C(=O)OC)C(c2cc(OC)ccc2OC)C(C#N)=C(N)O1 (stereo unspecified) : what was it?
output: inactive

input: Assay outcome for "O=C(COc1ccc2oc3c(c2c1)CCCC3)Nc1ccccn1" : what was it?
output: inactive

input: Assay outcome for "NC(=O)COc1ccc2c3c(c(=O)oc2c1)CCCCC3" : what was it?
output: active

input: Assay outcome for COC(=O)C1=C(C)OC(N)=C(C#N)C1c1cc(OC)ccc1OC (stereo unspecified) : what was it?
output: inactive

input: Assay outcome for "O=C(COc1ccc2c3c(c(=O)oc2c1)CCC3)NC1CCCCC1" : what was it?
output: active

input: Assay outcome for CCCN1CC=C2C(C#N)=C(N)C(C#N)(C#N)C(c3cc(OC)ccc3OC)C2C1 (stereo unspecified) : what was it?
output: active

input: Assay outcome for "COCCCNC(=O)c1ccc(CNS(=O)(=O)c2ccc(NC(C)=O)cc2)cc1" : what was it?
output: inactive

input: Assay outcome for "Cc1ccc(Cn2nnc3c(=O)n(CC(=O)N4CCCCC4)cnc32)cc1" : what was it?
output: inactive

input: Assay outcome for Cc1cc(Cl)c(S(=O)(=O)NCC2CCCO2)cc1OCC(N)=O (stereo unspecified) : what was it?
output: inactive

input: Assay outcome for "O=C(c1cc(C(F)(F)F)cc(C(F)(F)F)c1)N1CCC2(CCCN(c3ccccn3)C2)CC1" : what was it?
output: inactive

input: Assay outcome for "COCc1nnc(NC(=O)CS(=O)(=O)Cc2ccccc2)s1" : what was it?
output: inactive
